- Test system: Fibroblast
- ASSAY: Incucyte cell viability with human fibroblast; also: unitless GR value; below 1 slowed growth and below 0 cell loss
- Format: toxicity, cell-based
- PROTOCOL CONDITIONS: 6 h, 10 µM, compound concentration 10 uM, replicate number 2, timepoint 6 hours
Field: label. Allowed values: fulfilled (Growth Rate < 0.6) or not fulfilled (Growth Rate >= 0.6).

Problem: For the compound CC(C)(C)c1ccc(CSc2cnn(C(C)(C)C)c(=O)c2Cl)cc1 , is Growth Rate under 0.6?
fulfilled

Problem: For the compound CC(F)(F)CN1CCOc2c(nn(-c3ccccc3Cl)c2-c2ccc(Cl)cc2)C1=O , is Growth Rate under 0.6?
not fulfilled

Problem: For the compound Cc1ccccc1N1CCN(CCc2nnc3n2CCCC3)CC1.Cl [DAPIPRAZOLE HYDROCHLORIDE] , is Growth Rate under 0.6?
not fulfilled

Problem: For the compound CCCCCCCC/C=C\CCCCCCCC(N)=O [OLEAMIDE] , is Growth Rate under 0.6?
not fulfilled

Problem: For the compound CCc1nnc(NS(=O)(=O)c2ccc(NC(=S)NC(=O)/C=C/c3ccc(F)cc3)cc2)s1 , is Growth Rate under 0.6?
not fulfilled

Problem: For the compound O=C(O)c1cccc(/C=C2/C[C@@H]3[C@@H](/C=C/[C@H](O)C4CCCCC4)[C@H](O)C[C@@H]3O2)c1 , is Growth Rate under 0.6?
not fulfilled

Problem: For the compound CCN1/C(=C/C(C)=O)Sc2ccc(OC(C)=O)cc21 , is Growth Rate under 0.6?
fulfilled

Problem: For the compound CC(=O)c1ccc2c(c1)[C@@H]1C=CC[C@@H]1[C@H](c1cc3c(cc1Br)OCO3)N2 , is Growth Rate under 0.6?
fulfilled

Problem: For the compound O=C(Nc1cc(-c2ccccc2)nn1-c1ccccc1F)c1ccc([N+](=O)[O-])cc1 , is Growth Rate under 0.6?
fulfilled

Problem: For the compound S=C(NCCCc1c[nH]cn1)NCCCN(Cc1ccc(Cl)c(Cl)c1)c1ccc(Br)cn1 , is Growth Rate under 0.6?
fulfilled

Problem: For the compound COc1ccc2[nH]c(I)c(CCNC(C)=O)c2c1 , is Growth Rate under 0.6?
not fulfilled

Problem: For the compound CC[C@H](Nc1ncnc2[nH]cnc12)c1nc2cccc(F)c2c(=O)n1-c1ccccc1 , is Growth Rate under 0.6?
fulfilled

Problem: For the compound C=CCN1C[C@H](C(=O)N(CCCN(C)C)C(=O)NCC)C[C@@H]2c3cccc4[nH]cc(c34)C[C@H]21 , is Growth Rate under 0.6?
not fulfilled

Problem: For the compound CCCCCCCCCCCCC/C=C/[C@@H](O)[C@@H](N)COP(=O)([O-])OCC[N+](C)(C)C , is Growth Rate under 0.6?
fulfilled

Problem: For the compound CC(C)COc1ccc(CNC(=O)N(Cc2ccc(F)cc2)C2CCN(C)CC2)cc1 , is Growth Rate under 0.6?
fulfilled

Problem: For the compound O=C1[C@H](Cc2ccc(O)cc2)N2C(=O)CCN(C(=O)NCc3ccccc3)[C@H]2CN1Cc1cccc2ccccc12 , is Growth Rate under 0.6?
fulfilled

Problem: For the compound CCOC(=O)N[C@@H]1CC[C@@H]2[C@@H](C1)C[C@H]1C(=O)O[C@H](C)[C@H]1[C@H]2/C=C/c1ccc(-c2cccc(F)c2)cn1 , is Growth Rate under 0.6?
fulfilled

Problem: For the compound Nc1nc(-c2ccco2)c2cnn(Cc3ccccc3F)c2n1 , is Growth Rate under 0.6?
fulfilled

Problem: For the compound CCn1c(-c2nc3cc(C(=O)N4CCCC(N)C4)ccc3n2C)cc2ccccc21.Cl (centres undefined) , is Growth Rate under 0.6?
fulfilled

* * *

Task for the reader: assign each of the following molecules its reported Growth Rate.
- Tested on: U2OS
- ASSAY: Incucyte cell viability with U2OS; also: unitless GR value; below 1 slowed growth and below 0 cell loss
- Assay type: toxicity, cell-based
- PROTOCOL CONDITIONS: human, 18 h, 10 µM, compound concentration 10 uM, replicate number 2, timepoint 18 hours
Where a SMILES comes first, the peptide text is derived from it. [ ]: non-standard residue; d: D form. Arg(Me) = CNC(=N)NCCC[C@H](N)C(=O)O; d3Pal = N[C@H](Cc1cccnc1)C(=O)O; azaGly = NNC(=O)O
I only need the number, thanks.

Entry CC1(COc2ccc3c(c2)ncn3-c2ccc3cccc(N4CCC(N)CC4)c3n2)COC1 : reported Growth Rate = ?
0.92

Entry CS(=O)(=O)N1CCCC(NC(=O)[C@H](CCC2CCCCC2)NC(=O)c2ccc(CNc3ncnc4c3nnn4-c3ccccc3)cc2)C1 (some centres not stated) : reported Growth Rate = ?
0.89

Entry O=c1ccn([C@@H]2O[C@H](COP(=O)([O-])OP(=O)([O-])OP(=O)([O-])OP(=O)([O-])OC[C@H]3O[C@@H](n4ccc(=O)[nH]c4=O)[C@H](O)[C@@H]3O)[C@@H](O)[C@H]2O)c(=O)[nH]1.[Na+].[Na+].[Na+].[Na+] [DIQUAFOSOL TETRASODIUM] : reported Growth Rate = ?
0.92

Entry COc1cc(OC)cc(C(=O)NNC(=O)Nc2cccc3ccccc23)c1 : reported Growth Rate = ?
0.77

Entry CCCCCCCCCCCCC/C=C/[C@@H](O)[C@@H](N)COP(=O)(O)O : reported Growth Rate = ?
0.89

Entry CC[S+]([O-])c1nc(-c2cccc(OCc3ccccc3)c2)cc(C(F)(F)F)n1 (configuration not stated) : reported Growth Rate = ?
0.03

Entry CN(c1ncccc1CNc1ccnc(-c2nc3c(F)c(Cl)ccc3[nH]2)n1)S(C)(=O)=O : reported Growth Rate = ?
0.87

Entry CC[C@@]1(O)C(=O)OCc2c1cc1n(c2=O)Cc2cc3ccccc3nc2-1 : reported Growth Rate = ?
0.33

Entry CCC(=O)N1CC[C@H](Nc2ncnc3c2CN(c2cnc(OC)c(C(F)(F)F)c2)CC3)C1 : reported Growth Rate = ?
0.79

Entry Cn1cc(C(=O)OCC2CCN(CCNS(C)(=O)=O)CC2)c2ccccc21 : reported Growth Rate = ?
0.89

Entry CNC(=N)NCCC[C@H](NC(=O)[C@H](CC(C)C)NC(=O)NNC(=O)[C@H](Cc1ccccc1)NC(=O)[C@H](CO)NC(=O)[C@H](CC(N)=O)NC(=O)[C@@H](Cc1cccnc1)NC(=O)[C@H](N)Cc1ccc(O)cc1)C(=O)NCC(N)=O [KISS1-543] (H-[dY][d3Pal]NSF[azaGly]L[Arg(Me)]G-NH2) : reported Growth Rate = ?
0.99

Entry COc1ccccc1N1CCN(C[C@@H](C(=O)NC(C)(C)C)c2ccccc2)CC1.Cl.Cl : reported Growth Rate = ?
0.92

Entry COc1ccncc1C(=O)NC(=O)Nc1ccc(-c2ccccc2)c(C(F)(F)F)c1 : reported Growth Rate = ?
0.94

Entry CCCCC[C@H](O)/C=C/[C@H]1[C@H](O)CC(=O)[C@@H]1CCCCCCC(=O)O : reported Growth Rate = ?
0.83

Entry Cl.FC(F)(F)c1ccc(N2CCNCC2)nc1Cl : reported Growth Rate = ?
0.87

Entry CSCC[C@H](NC(=O)[C@@H]1CCCN1C(=O)CNC(=O)[C@H](CCCCN)NC(=O)[C@H](Cc1cnc[nH]1)NC(=O)[C@H](CO)NC(=O)[C@H](CC(C)C)NC(=O)[C@H](CCCNC(=N)N)NC(=O)[C@@H]1CCCN1C(=O)[C@H](CCCNC(=N)N)NC(=O)[C@@H](N)CCC(N)=O)C(=O)N1CCC[C@H]1C(=O)N[C@@H](Cc1ccccc1)C(=O)O : reported Growth Rate = ?
0.91

Entry COc1ccc2c(c1OCc1ccccc1)C[C@@H](C(=O)O)N(C(=O)C(c1ccccc1)c1ccccc1)C2 : reported Growth Rate = ?
0.98

* * *

- System: U2OS
- ASSAY: Incucyte cell viability with U2OS; also: unitless GR value; below 1 slowed growth and below 0 cell loss
- Assay type: toxicity, cell-based
- PROTOCOL CONDITIONS: human, 0 h, 10 µM, compound concentration 10 uM, replicate number 1, timepoint 0 hours
Task for the reader: assign each of the following compounds its reported Growth Rate.
I only need the number, thanks.

Entry COc1cc(Nc2nc(C)cc(-c3cnn4nc(OC)ccc34)n2)cc(C(F)(F)F)c1 : reported Growth Rate = ?
0.11

Entry Cc1cc(=O)n(C)c2cc(N3C(=O)CC[C@H](NS(=O)(=O)CC(C)C)[C@H]3c3ccc(Cl)cc3)ccc12 : reported Growth Rate = ?
-0.56

Entry COc1cc2nc(N(C)CCCNC(=O)C3CCCO3)nc(N)c2cc1OC.Cl (centres undefined) [ALFUZOSIN HYDROCHLORIDE] : reported Growth Rate = ?
-0.55

Entry O=C1COc2nccc(-c3ccccc3F)c2CN1Cc1cc(C(F)(F)F)cc(C(F)(F)F)c1 : reported Growth Rate = ?
-0.7

Entry Cc1nc[nH]c1CCN.Cl : reported Growth Rate = ?
-0.24

Entry CCCCCC(O)/C=C/[C@H]1C(=O)CC(O)C1C/C=C\CCCC(=O)O (some centres undefined) : reported Growth Rate = ?
-0.23

Entry NCCc1c[nH]c2ccc(C(N)=O)cc12.O=C(O)/C=C\C(=O)O : reported Growth Rate = ?
-0.1

Entry COCCn1c(C)c(C)s/c1=N\C(=O)C1C(C)(C)C1(C)C : reported Growth Rate = ?
0.47

Entry C[C@@H]1CC(=O)Nc2cccc(-c3ccc4c(c3)c(-c3cnn(C)c3)nn4C)c2N1 : reported Growth Rate = ?
-0.4

Entry CCc1cc2cc(NS(=O)(=O)c3ccc(C#N)cc3)ccc2n(CC)c1=O : reported Growth Rate = ?
-0.59

Entry N[C@@H]1c2cccnc2[C@H](OC(=O)N2CCC(n3c(=O)[nH]c4ncccc43)CC2)CC[C@H]1c1cccc(F)c1F : reported Growth Rate = ?
-0.42

Entry N#Cc1c(N)nc(SCc2csc(-c3ccc(Cl)cc3)n2)c(C#N)c1-c1ccc(OCCO)cc1 : reported Growth Rate = ?
0.75

Entry COC(=O)[C@H](CCCNC(=N)N)NC(=O)CCCc1c(-c2ccccc2)[nH]c2c(F)cc(F)cc12.O=C(O)C(F)(F)F : reported Growth Rate = ?
-0.03

Entry Brc1c(N=C2NCCN2)ccc2nccnc12.O=C(O)C(O)C(O)C(=O)O : reported Growth Rate = ?
0.29
